# MEASUREMENT_NOTES: Acute lethality and toxicity, oral administration (gastric probe)
# Format: in vivo, Mus musculus
# RECORDED_CONDITIONS: mouse, in vivo, po, 4000 mg/kg, M. musculus F; oral; 4000 mg/kg; read-out: % mortality at following times after administration 24 h
EXPERIMENTAL_ENDPOINT: mortality at 24 h (%)
State just the number; it will be interpreted in %.

>>> df
                            smiles_notation  numeric_readout
0  C[C@H](CCC(=O)O)[C@H]1CC[C@H]2[C@@H]3[C@@H](O)C[C@@H]4C[C@H](O)CC[C@]4(C)[C@H]3CC[C@]12C               20

Then this molecule:
Request: Item under review: `C[C@H](CCC(=O)O)[C@H]1CC[C@H]2[C@@H]3[C@H](O)C[C@@H]4C[C@H](O)CC[C@]4(C)[C@H]3CC[C@]12C` . Reported mortality at 24 h?
Response: 30
